Target: human Nav.1.7 (Homo sapiens)
Construct: expressed in transfected cells
Assay: Nav1.7 spiking HEK assay on Swarm
Type: cell-based
Conditions: normalized mean spike amplitude score; Prestwick library compounds
measured quantity: Nav1.7 Swarm (score at 3 µM)
Write the value as a bare number.

{"compound": "CCCNCC(O)COc1ccccc1C(=O)CCc1ccccc1 (stereo not drawn)", "tested target": "human Nav.1.7 (Homo sapiens)", "measured quantity": "Nav1.7 Swarm (score at 3 µM)", "experimental value": 0.20}
{"compound": "CCN(CC)Cc1cc(Nc2ccnc3cc(Cl)ccc23)ccc1O", "tested target": "human Nav.1.7 (Homo sapiens)", "measured quantity": "Nav1.7 Swarm (score at 3 µM)", "experimental value": 0.95}
{"compound": "OCc1cc(C(O)CNCCCCCCOCCCCc2ccccc2)ccc1O (stereo not drawn)", "tested target": "human Nav.1.7 (Homo sapiens)", "measured quantity": "Nav1.7 Swarm (score at 3 µM)", "experimental value": 0.22}
{"compound": "O=C(N[C@H](CO)[C@H](O)c1ccc([N+](=O)[O-])cc1)C(Cl)Cl", "tested target": "human Nav.1.7 (Homo sapiens)", "measured quantity": "Nav1.7 Swarm (score at 3 µM)", "experimental value": 1.07}
{"compound": "Nc1nc2ccc(OC(F)(F)F)cc2s1", "tested target": "human Nav.1.7 (Homo sapiens)", "measured quantity": "Nav1.7 Swarm (score at 3 µM)", "experimental value": 0.14}

IN: Need Nav1.7 Swarm (score at 3 µM) of COc1c(N2C[C@@H]3CCCN[C@@H]3C2)c(F)cc2c(=O)c(C(=O)O)cn(C3CC3)c12 , thanks.
OUT: 1.06

IN: Next compound: C=C1C[C@@H]2[C@H](CC[C@]3(C)C(=O)CC[C@@H]23)[C@@]2(C)C=CC(=O)C=C12
OUT: 0.90

IN: What would you report for CCN(CC)CCCC(C)Nc1c2ccc(Cl)cc2nc2ccc(OC)cc12 (stereo not drawn) ?
OUT: 0.96

IN: Try this compound too: CC(=O)N1CCN(c2ccc(OCC3COC(Cn4ccnc4)(c4ccc(Cl)cc4Cl)O3)cc2)CC1 (stereo not drawn)
OUT: 0.96

----------
Data export: IC50 values recorded with human Nav1.5 (Homo sapiens).
Sequence (Q14524 whole entry): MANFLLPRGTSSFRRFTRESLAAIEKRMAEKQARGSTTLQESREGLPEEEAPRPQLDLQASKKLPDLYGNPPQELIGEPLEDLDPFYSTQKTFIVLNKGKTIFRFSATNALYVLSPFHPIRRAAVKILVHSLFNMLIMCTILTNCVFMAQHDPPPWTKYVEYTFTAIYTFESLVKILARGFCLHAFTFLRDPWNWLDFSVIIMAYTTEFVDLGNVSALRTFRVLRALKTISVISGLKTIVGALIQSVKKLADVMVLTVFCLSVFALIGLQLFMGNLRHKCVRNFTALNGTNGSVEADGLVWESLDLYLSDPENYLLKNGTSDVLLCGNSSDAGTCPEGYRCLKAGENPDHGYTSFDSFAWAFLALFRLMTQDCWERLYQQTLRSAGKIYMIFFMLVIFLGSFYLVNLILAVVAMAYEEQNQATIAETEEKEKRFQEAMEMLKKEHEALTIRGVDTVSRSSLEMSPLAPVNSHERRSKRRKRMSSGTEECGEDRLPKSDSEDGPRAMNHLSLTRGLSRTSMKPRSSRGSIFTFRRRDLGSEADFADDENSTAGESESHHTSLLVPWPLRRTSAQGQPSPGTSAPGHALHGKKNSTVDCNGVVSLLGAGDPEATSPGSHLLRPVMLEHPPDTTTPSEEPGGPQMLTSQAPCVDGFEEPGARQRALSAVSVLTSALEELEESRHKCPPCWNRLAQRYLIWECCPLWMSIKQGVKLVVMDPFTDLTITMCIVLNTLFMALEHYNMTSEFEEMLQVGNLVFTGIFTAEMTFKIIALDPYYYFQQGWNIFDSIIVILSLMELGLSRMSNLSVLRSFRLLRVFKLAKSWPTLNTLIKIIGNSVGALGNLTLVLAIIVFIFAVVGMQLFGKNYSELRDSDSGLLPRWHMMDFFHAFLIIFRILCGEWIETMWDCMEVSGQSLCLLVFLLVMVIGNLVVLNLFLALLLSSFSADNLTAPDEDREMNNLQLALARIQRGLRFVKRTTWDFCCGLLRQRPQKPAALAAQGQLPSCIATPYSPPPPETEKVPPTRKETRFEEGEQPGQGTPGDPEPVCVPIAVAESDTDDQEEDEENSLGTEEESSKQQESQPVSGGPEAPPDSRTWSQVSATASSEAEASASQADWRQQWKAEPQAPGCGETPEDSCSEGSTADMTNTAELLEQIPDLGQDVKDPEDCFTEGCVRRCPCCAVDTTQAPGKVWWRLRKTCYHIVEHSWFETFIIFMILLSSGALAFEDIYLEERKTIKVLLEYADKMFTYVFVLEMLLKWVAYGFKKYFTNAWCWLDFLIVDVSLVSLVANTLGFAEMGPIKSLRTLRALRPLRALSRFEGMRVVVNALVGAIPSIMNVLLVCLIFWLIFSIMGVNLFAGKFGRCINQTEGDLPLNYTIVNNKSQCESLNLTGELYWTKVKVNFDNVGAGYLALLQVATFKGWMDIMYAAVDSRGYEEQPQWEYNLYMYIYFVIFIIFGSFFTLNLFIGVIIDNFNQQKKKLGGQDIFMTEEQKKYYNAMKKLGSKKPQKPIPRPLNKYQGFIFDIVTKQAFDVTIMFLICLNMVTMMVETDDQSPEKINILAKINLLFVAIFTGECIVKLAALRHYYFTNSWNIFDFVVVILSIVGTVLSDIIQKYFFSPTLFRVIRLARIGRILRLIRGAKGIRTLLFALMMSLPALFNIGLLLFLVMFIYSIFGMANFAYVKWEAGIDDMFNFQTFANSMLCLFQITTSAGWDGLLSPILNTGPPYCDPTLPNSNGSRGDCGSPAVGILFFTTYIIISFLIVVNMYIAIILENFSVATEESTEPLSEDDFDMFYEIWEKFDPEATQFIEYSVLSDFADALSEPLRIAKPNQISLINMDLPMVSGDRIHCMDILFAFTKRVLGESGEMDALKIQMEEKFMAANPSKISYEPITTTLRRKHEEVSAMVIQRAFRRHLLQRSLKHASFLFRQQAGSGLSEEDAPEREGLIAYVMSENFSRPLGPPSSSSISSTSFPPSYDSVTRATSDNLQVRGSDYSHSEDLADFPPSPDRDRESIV
Enter your answer as a number in nM; do not include the unit.

{"compound": "Nc1nnc(-c2cccc(Cl)c2Cl)c(N)n1", "measured quantity": "IC50", "experimental value": 20600}

IN: Could you tell me which IC50 is on file for CN(C)CCC=C1c2ccccc2CCc2ccccc21 ?
OUT: 820

IN: Ok, now NC(=O)[C@@H]1CC[C@H](c2ccc(OCc3ccccc3F)cc2)N1
OUT: 930

IN: Another compound: O=C1N(Cc2ccc(C(F)(F)F)o2)c2ccccc2[C@]12COc1cc3c(cc12)OCO3 [Funapide]
OUT: 240

IN: What would you report for NC(=O)N1c2ccccc2C=Cc2ccccc21 [Carbamazepine] ?
OUT: 37100

----------
Target: human Nav.1.7 (Homo sapiens, UniProt Q15858)
Construct: expressed in transfected cells
Assay: Nav1.7 spiking HEK assay on Swarm
Type: cell-based
Conditions: normalized mean spike amplitude score; Prestwick library compounds
measured quantity: Nav1.7 Swarm (score at 3 µM)
Answer as a number with no unit attached.

Recorded Nav1.7 Swarm (score at 3 µM), per entry:
{"compound": "CC(CN(C)C)CN1c2ccccc2CCc2ccccc21 (stereo not drawn)", "Nav1.7 Swarm (score at 3 µM)": 0.37}
{"compound": "COC(=O)C1=C(C)NC(C)=C(C(=O)OCCN(C)Cc2ccccc2)C1c1cccc([N+](=O)[O-])c1 (stereo not drawn)", "Nav1.7 Swarm (score at 3 µM)": 0.07}
{"compound": "COc1ccc(CCN2CCC(Nc3nc4ccccc4n3Cc3ccc(F)cc3)CC2)cc1", "Nav1.7 Swarm (score at 3 µM)": 0.01}

Note: attention shifts to another entry.
IN: Query: Nav1.7 Swarm (score at 3 µM); subject: O=C1NCCN1CCN1CCC(c2cn(-c3ccc(F)cc3)c3ccc(Cl)cc23)CC1
OUT: 0.64

----------
Molecular target: human Nav.1.7 (Homo sapiens, UniProt Q15858)
Construct: expressed in transfected cells
Test: Nav1.7 spiking HEK assay on Swarm
Assay type: cell-based
Details: normalized mean spike amplitude score; Prestwick library compounds
measured quantity: Nav1.7 Swarm (score at 3 µM)
API note: the answer field is a bare number with no unit suffix.

Below: 2 compounds and their reported Nav1.7 Swarm (score at 3 µM).
{"compound": "COC(=O)[C@H]1[C@H]2C[C@@H]3c4[nH]c5cc(OC)ccc5c4CCN3C[C@H]2C[C@@H](OC(=O)c2cc(OC)c(OC)c(OC)c2)[C@@H]1OC", "tested target": "human Nav.1.7 (Homo sapiens, UniProt Q15858)", "Nav1.7 Swarm (score at 3 µM)": 1.01}
{"compound": "CCN(CC)CCNC(=O)c1cc(Br)c(N)cc1OC [Bromopride]", "tested target": "human Nav.1.7 (Homo sapiens, UniProt Q15858)", "Nav1.7 Swarm (score at 3 µM)": 0.92}

# evaluate next
IN: Sample O=C1CC2(CCCC2)CC(=O)N1CCCCN1CCN(c2ncccn2)CC1 — what was its Nav1.7 Swarm (score at 3 µM)?
OUT: 0.97

----------
Target: human Nav1.2 (Homo sapiens)
Construct: expressed in transfected cells
Sequence (Q99250 whole entry): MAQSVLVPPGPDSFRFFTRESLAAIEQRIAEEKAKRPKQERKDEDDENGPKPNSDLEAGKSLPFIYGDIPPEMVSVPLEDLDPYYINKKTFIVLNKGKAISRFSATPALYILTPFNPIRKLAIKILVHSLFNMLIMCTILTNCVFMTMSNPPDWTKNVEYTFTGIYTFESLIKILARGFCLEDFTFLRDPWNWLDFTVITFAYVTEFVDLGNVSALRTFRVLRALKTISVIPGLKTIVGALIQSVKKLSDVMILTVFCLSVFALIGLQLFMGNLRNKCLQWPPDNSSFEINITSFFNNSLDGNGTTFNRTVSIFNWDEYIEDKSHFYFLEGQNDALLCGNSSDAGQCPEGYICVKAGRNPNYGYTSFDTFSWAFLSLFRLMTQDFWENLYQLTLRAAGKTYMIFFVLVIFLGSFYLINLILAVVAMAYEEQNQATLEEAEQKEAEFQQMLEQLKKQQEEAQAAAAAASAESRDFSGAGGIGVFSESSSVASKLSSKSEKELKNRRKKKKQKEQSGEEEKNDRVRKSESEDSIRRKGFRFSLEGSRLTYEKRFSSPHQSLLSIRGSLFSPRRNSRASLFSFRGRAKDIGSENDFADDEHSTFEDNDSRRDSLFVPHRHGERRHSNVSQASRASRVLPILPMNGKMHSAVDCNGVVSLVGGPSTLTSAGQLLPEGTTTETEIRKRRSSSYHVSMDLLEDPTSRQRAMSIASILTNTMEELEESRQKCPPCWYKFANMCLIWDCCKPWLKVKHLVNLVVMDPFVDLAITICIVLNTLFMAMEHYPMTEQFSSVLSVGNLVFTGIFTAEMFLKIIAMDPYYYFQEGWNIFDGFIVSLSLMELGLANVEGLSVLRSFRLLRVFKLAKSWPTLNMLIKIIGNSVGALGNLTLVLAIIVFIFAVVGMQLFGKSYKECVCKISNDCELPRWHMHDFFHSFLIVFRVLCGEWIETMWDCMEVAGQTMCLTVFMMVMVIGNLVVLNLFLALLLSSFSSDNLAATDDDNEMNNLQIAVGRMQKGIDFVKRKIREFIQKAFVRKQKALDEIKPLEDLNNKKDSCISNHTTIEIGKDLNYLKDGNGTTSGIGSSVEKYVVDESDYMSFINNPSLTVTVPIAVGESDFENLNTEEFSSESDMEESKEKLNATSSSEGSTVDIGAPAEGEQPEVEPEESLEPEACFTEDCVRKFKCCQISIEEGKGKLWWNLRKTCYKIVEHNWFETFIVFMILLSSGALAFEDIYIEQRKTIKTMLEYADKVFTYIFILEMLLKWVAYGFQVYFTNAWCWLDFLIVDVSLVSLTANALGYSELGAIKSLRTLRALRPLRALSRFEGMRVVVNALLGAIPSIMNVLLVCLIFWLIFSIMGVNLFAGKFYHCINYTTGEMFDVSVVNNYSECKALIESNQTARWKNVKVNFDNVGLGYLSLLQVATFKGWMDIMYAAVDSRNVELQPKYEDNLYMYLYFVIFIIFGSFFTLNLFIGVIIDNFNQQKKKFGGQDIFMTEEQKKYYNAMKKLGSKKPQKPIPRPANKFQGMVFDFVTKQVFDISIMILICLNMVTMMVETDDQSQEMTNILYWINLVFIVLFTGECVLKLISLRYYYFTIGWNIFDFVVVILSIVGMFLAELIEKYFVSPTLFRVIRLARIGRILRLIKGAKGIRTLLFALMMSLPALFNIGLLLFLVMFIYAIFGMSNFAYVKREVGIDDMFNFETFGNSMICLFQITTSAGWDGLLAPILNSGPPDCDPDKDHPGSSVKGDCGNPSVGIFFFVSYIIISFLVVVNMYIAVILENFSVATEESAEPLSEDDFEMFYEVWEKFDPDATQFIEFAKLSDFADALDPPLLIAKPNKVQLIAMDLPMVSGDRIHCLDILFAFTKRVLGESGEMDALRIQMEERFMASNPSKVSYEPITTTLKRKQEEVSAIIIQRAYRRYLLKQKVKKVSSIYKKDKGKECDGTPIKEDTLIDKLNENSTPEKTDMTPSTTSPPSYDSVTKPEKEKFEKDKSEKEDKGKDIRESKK
Assay: Nav1.2 spiking HEK assay on Swarm
Assay type: cell-based
Conditions: 8 mM bath [K+]; mean spike areas under TP1, TP8, TP10
Recorded IC50 for the following compounds
Could you give the number and then its unit, please?

IN: Requested field: IC50. Item: NC(=O)[C@@H]1CC[C@H](c2ccc(OCc3ccccc3F)cc2)N1
OUT: 1.74 µM

----------
Biological target: human Nav.1.7 (Homo sapiens, UniProt Q15858)
Construct: expressed in transfected cells
Experiment: Nav1.7 spiking HEK assay on Swarm
Assay type: cell-based
Details: normalized mean spike amplitude score; Prestwick library compounds
Listing: Nav1.7 Swarm (score at 3 µM) of selected compounds

Here's what some known entries look like.
{"compound": "CCN(CC)CCOC(=O)c1ccc(N)cc1", "tested target": "human Nav.1.7 (Homo sapiens, UniProt Q15858)", "Nav1.7 Swarm (score at 3 µM)": 1.07}
{"compound": "Cc1cccc(C)c1NC(=O)C1CCCCN1C (centres unmarked) [Mepivacaine]", "tested target": "human Nav.1.7 (Homo sapiens, UniProt Q15858)", "Nav1.7 Swarm (score at 3 µM)": 0.96}
{"compound": "CNCCC=C1c2ccccc2CCc2ccccc21", "tested target": "human Nav.1.7 (Homo sapiens, UniProt Q15858)", "Nav1.7 Swarm (score at 3 µM)": 0.19}

IN: Can you share its Nav1.7 Swarm (score at 3 µM)? I mean this compound: CC(NC(C)(C)C)C(=O)c1cccc(Cl)c1 (centres unmarked)
OUT: 0.97

IN: Same question for CCc1nc(N)nc(N)c1-c1ccc(Cl)cc1 please.
OUT: 0.99

----------
Biological target: human Nav.1.7 (Homo sapiens, UniProt Q15858)
Construct: expressed in transfected cells
Assay: Nav1.7 spiking HEK assay on Swarm
Type: cell-based
Conditions: normalized mean spike amplitude score; Prestwick library compounds
Nav1.7 Swarm (score at 3 µM) for assorted molecules
Reply with the value as a number alone.

{"molecule": "CN1CCCCC1CCN1c2ccccc2Sc2ccc([S+](C)[O-])cc21 (centres unmarked) [Mesoridazine]", "Nav1.7 Swarm (score at 3 µM)": 0.40}
{"molecule": "Cc1cccc(C)c1OCC(C)N (centres unmarked) [Mexiletine]", "Nav1.7 Swarm (score at 3 µM)": 1.00}
{"molecule": "C1CCC(C(CC2CCCCN2)C2CCCCC2)CC1 (centres unmarked) [Perhexiline]", "Nav1.7 Swarm (score at 3 µM)": 0.59}
{"molecule": "CN1CCN(C2=Nc3cc(Cl)ccc3Nc3ccccc32)CC1 [Clozapine]", "Nav1.7 Swarm (score at 3 µM)": 0.74}

As a next step, examine the molecule that follows.
IN: Request - read-out Nav1.7 Swarm (score at 3 µM) | tested on human Nav.1.7 (Homo sapiens, UniProt Q15858) | molecule CN(C)CCCC1(c2ccc(F)cc2)OCc2cc(C#N)ccc21 (centres unmarked) [Citalopram]
OUT: 0.92

----------
Molecular target: human Nav.1.7 (Homo sapiens)
Construct: expressed in transfected cells
Assay: Nav1.7 spiking HEK assay on Swarm
Assay type: cell-based
Conditions: normalized mean spike amplitude score; Prestwick library compounds
In plain terms, low Nav1.7 Swarm (score at 3 µM), meaning strictly below 0.7, gives yes (1), and everything else gives no (0).

IN: Given the entry CC(C)NC[C@@H](O)COc1cccc2ccccc12 [(R)-Propranolol] , would its reported Nav1.7 Swarm (score at 3 µM) be below 0.7?
OUT: yes (1)

IN: Similarly, CCN(CC)CCNC(=O)c1ccc(N)cc1 [Procainamide] ?
OUT: no (0)

IN: Another compound to look at: CN(C)CCC=C1c2ccccc2CCc2ccccc21 [Amitriptyline]
OUT: yes (1)

IN: Again, but for COC(=O)C1=C(C)NC(C)=C(C(=O)OC)C1c1ccccc1[N+](=O)[O-] [Nifedipine]
OUT: no (0)

IN: Again, but for Nc1c(Br)cc(Br)cc1CN[C@H]1CC[C@H](O)CC1 [Ambroxol]
OUT: no (0)

IN: Same for CC(C)(C)c1ccc(C(O)CCCN2CCC(C(O)(c3ccccc3)c3ccccc3)CC2)cc1 (stereo not shown) [Terfenadine]
OUT: yes (1)

IN: Try this compound next: CN(C)CCCN1c2ccccc2Sc2ccc(Cl)cc21 [Chlorpromazine]
OUT: yes (1)

IN: Request: CNCCCN1c2ccccc2CCc2ccccc21 [Desipramine]
OUT: yes (1)

IN: Also need O=C(CCCN1CCC(O)(c2ccc(Cl)cc2)CC1)c1ccc(F)cc1 [Haloperidol] , thanks.
OUT: yes (1)
